- ASSAYED_SYSTEM: human TREM2 (Homo sapiens)
- Construct: expressed in transfected cells; host or cells: HEK293T
- Sequence (Q9NZC2 19-230): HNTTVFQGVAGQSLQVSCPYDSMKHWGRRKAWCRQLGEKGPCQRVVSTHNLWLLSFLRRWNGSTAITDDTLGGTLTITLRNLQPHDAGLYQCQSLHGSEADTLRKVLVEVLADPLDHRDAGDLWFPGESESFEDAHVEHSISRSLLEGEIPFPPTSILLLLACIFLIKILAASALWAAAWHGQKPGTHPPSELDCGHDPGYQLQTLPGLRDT
- Sequence (O43914 22-113 partner): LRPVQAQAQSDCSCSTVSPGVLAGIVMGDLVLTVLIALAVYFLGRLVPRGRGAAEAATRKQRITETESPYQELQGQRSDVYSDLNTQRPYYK
- ASSAY_COMMENT: TREM2 agonist potency by cellular phosphorylation of Syk (AlphaLisa) in HEK293T-hTREM2 cells
- Format: cell-based
- ASSAY_SETUP: HEK293 cells expressing human TREM2 and DAP12, Table D
pEC50: −log10 of the molar value.
ASSAY_ENDPOINT: pEC50

Illustrative cases are given below, each with its answer.
Need pEC50, item Cc1nc2nc([C@@H]3CCO[C@H](c4ccc(=O)n(C)c4)C3)nc(-c3ccc(F)cc3F)c2nc1C [Example 200]
> 7.30

Form field: reported pEC50 of Cc1nc2cc([C@H]3CCO[C@@H](c4cnn(C5CC5)c4)C3)cc(-c3ccc(F)cc3Cl)c2nc1C [Example 229]
6.30 to 7.30

May I ask what pEC50 has been recorded for Cc1nc2nc([C@@H]3CCO[C@H](c4cnn(C5CCC5)c4)C3)nc(-c3ccc(F)cc3F)c2nc1C [Example 147] ?
6.30 to 7.30

Which pEC50 value is on record for Cc1nc2nc(C3CCOC(c4cc(C5CC5)n[nH]4)C3)nc(-c3ccc(F)cc3F)c2nc1C (stereo not drawn) [Example 166] ?
6.30 to 7.30

---
# get_value(readout='pEC50', item= [2H]C([2H])([2H])c1ccc(-c2nc([C@@H]3CCO[C@H](c4cnn(C([2H])([2H])[2H])c4)C3)nc3nc(C([2H])([2H])[2H])c(C([2H])([2H])[2H])nc23)cc1 [Example 174] )
4.00 to 5.52

Requested field: pEC50. Item: [2H]C1([2H])C[C@@H](c2nc(-c3ccc(Cl)cc3F)c3nc(C)c(C)nc3n2)C[C@@H](c2cnn(C3CC3)c2)O1 [Example 189]
6.30 to 7.30

----------
- ASSAYED_SYSTEM: human TREM2 (Homo sapiens)
- Construct: expressed in transfected cells; host or cells: HEK293T
- ASSAY_COMMENT: TREM2 agonist potency by cellular phosphorylation of Syk (AlphaLisa) in HEK293T-hTREM2 cells
- Type: cell-based
- ASSAY_SETUP: HEK293 cells expressing human TREM2 and DAP12, Table D
- Description: In Vitro Measurement of Triggering Receptor Expressed on Myeloid Cells 2 Activity Using Cellular Phosphorylation of Spleen Tyrosine Kinase (“Syk”) Assays Measurement of TREM2 agonist potency was done using a HEK cell line expressing human TREM2 and DAP12 (HEK293T-hTREM2 cells). Binding of small molecules to, and activation of, TREM2 increases the phosphorylation of Syk. The resultant levels of Syk phosphorylation are measured using a commercial AlphaLisa reagent kit. […]
ASSAY_ENDPOINT: EC50

The cases that follow already have their EC50 on record.
Which EC50 reading was recorded for the compound `Cc1cnc2c(C34CC(C(F)(F)F)(C3)C4)nc(N3C[C@@H](c4cnn(C5CC5)c4)O[C@@H](C)C3)nc2n1` ?
< 50 nM

Record request: EC50 value, item Cc1cnc2c(C34CC(C(F)(F)F)(C3)C4)nc(N3C[C@@H](C)O[C@@H](c4cnn(C5CC5)c4)C3)nc2n1 (racemic) [Example 49]
< 50 nM

***
Given `COc1ncccc1[C@@H]1C[C@H](c2nc(C34CC(C(F)(F)F)(C3)C4)c3nc(C)c(C)nc3n2)CCO1` , state its recorded EC50.
500 to 3000 nM

Quick check: EC50 of `[2H]C1([2H])C[C@H](c2nc(-c3ccc(F)cc3F)c3nc(C)c(C)nc3n2)C[C@]([2H])(c2cnn(C3CC3)c2)O1` ?
< 50 nM

For the compound shown here, `COc1ccc([C@H]2C[C@@H](c3nc(C45CC(C(F)(F)F)(C4)C5)c4nc(C)c(C)nc4n3)CCO2)cn1` , give the reported EC50.
< 50 nM

Recorded EC50 for `COc1ccc([C@H]2C[C@@H](c3nc(-c4ccc(F)cc4F)c4nc(C)c(C)nc4n3)CCO2)cn1` , please?
50 to 500 nM

Look up EC50 for this compound: `[2H]C([2H])([2H])c1nc2nc([C@@H]3CCO[C@H](c4cnn(C([2H])([2H])[2H])c4)C3)nc(-c3ccc(C)cc3)c2nc1C([2H])([2H])[2H]`
3000 to 100000 nM

So what's the measured EC50 for this one? `Cc1nc2cc([C@H]3CCO[C@@H](c4cnn(C5CC5)c4)C3)nc(-c3ccc(F)cc3F)c2nc1C`
< 50 nM

Using the record for `Cc1nc2nc(N3CCO[C@H](c4cc[nH]c(=O)c4)C3)nc(C34CC(C(F)(F)F)(C3)C4)c2nc1C` , report its EC50.
50 to 500 nM

Entry `Cc1nc2nc([C@@H]3CCO[C@H](c4cnn(CCF)c4)C3)nc(-c3ccc(F)cc3F)c2nc1C` : reported EC50 = ?
500 to 3000 nM

Reported EC50 for `Cc1nc2nc([C@H]3CCO[C@@H](c4cnn(C5CC5)c4)C3)nc(-c3cc(F)c(F)cc3F)c2nc1C` : what is it?
< 50 nM

----------
- ASSAYED_SYSTEM: human TREM2 (Homo sapiens)
- Construct: expressed in transfected cells; host or cells: HEK293T
- ASSAY_COMMENT: TREM2 agonist potency by cellular phosphorylation of Syk (AlphaLisa) in HEK293T-hTREM2 cells
- Type: cell-based
- ASSAY_SETUP: HEK293 cells expressing human TREM2 and DAP12, Table D
Attribute: EC50

What value of EC50 has been recorded for this entry: Cc1ccc2c(-c3ccc(C(F)(F)F)cc3)nc([C@H]3CCO[C@@H](c4cnn(C5CC5)c4)C3)nc2n1 [Example 217]
< 50 nM

Sample COc1ccc([C@@H]2C[C@H](c3nc(C45CC(C(F)(F)F)(C4)C5)c4nc(C)c(C)nc4n3)CCO2)cn1 [Example 142] — what was its EC50?
50 to 500 nM

---
Given the molecule Cc1nc2nc([C@H]3CCO[C@@H](c4cnn(C5CC5)c4)C3)nc(C3C[C@@H](F)[C@@H](F)C3)c2nc1C (stereo partly drawn) [Example 245] , what is its reported EC50?
500 to 3000 nM

----------
- ASSAYED_SYSTEM: human TREM2 (Homo sapiens)
- Construct: expressed in transfected cells; host or cells: HEK293T
- ASSAY_COMMENT: TREM2 agonist potency by cellular phosphorylation of Syk (AlphaLisa) in HEK293T-hTREM2 cells
- Format: cell-based
- ASSAY_SETUP: HEK293 cells expressing human TREM2 and DAP12, Table D-2
Catalogue of EC50 values

Record excerpt, results attached:
If you can, please state the reported EC50 value of Cc1nc2nc([C@@H]3CCO[C@H](c4cnc(C5CC5)o4)C3)nc(-c3ccc(F)cc3F)c2nc1C [Example I-1700] .
50 to 500 nM

Could you share which EC50 value was measured for Cc1cc(N2C[C@@H](c3nc(-c4ccc(F)cc4F)c4nc(C)c(C)nc4n3)CCC2=O)ccn1 [Example I-1513] ?
50 to 500 nM

What value of EC50 has been recorded for this entry: Cc1nc2nc([C@H]3CCO[C@@H](c4cnn(C5CC5)c4)C3)nc(-c3ccc(C4CCC4)cc3F)c2nc1C [Example I-1182]
500 to 3000 nM

Please give the measured EC50 for this compound: Cc1nc2cc([C@H]3CCO[C@@H](c4cnn(C5CC5)c4)C3)nc(-c3ccc(C(F)(F)F)cc3F)c2nc1C(F)(F)F [Example I-1562]
50 to 500 nM

---
I'd like to know its EC50. The compound in question is Cc1nc2nc([C@H]3CCO[C@@H](c4cnn(C5CC5)c4)C3)nc(-c3ccc(Cl)cc3F)c2nc1C(F)F [Example I-1099]
< 50 nM

What EC50 value was documented for this compound, Cc1nc2nc([C@H]3CCO[C@@H](c4cnc(C5CC5)o4)C3)nc(-c3ccc(F)cc3F)c2nc1C [Example I-1699] ?
50 to 500 nM

For Cc1nc2nc(N3C[C@@H](CO)O[C@@H](c4cnn(C5CC5)c4)C3)nc(-c3ccc(F)cc3F)c2nc1C [Example I-1333] , what is its reported EC50?
50 to 500 nM

Please report the recorded EC50 for Cc1nc2nc(C3CCO[C@@H](c4cnn(C5CC5)c4)C3)nc([C@H]3C[C@H](C(F)(F)F)C3)c2nc1C (stereo partly drawn) [Example I-1432] .
< 50 nM

Given Cc1cc(-c2nc(N3C[C@@H](C)O[C@@H](c4cnn(C5CC5)c4)C3)nc3nc(C)c(C)nc23)on1 [Example I-1086] , state its recorded EC50.
500 to 3000 nM

Please report the recorded EC50 for [2H]C([2H])([2H])c1nc2nc(N3C[C@@H](C)O[C@@H](c4cnn(C5CC5)c4)C3)nc(-c3ccc(F)cc3F)c2nc1C([2H])([2H])[2H] [Example I-1129] .
< 50 nM

Cited source for all entries: patent US20240309003A1
